# targetOfAssay: neuramimidase-treated human suPAR (soluble recombinant uPAR) (Homo sapiens, UniProt Q03405)
# Construct: A soluble recombinant variant of human uPAR (suPAR) was expressed in Chinese hamster ovary (dhfr) cells; made in house; host or cells: Chinese hamster ovary (dhfr) cells
# Sequence (Q03405 23-305 limits assumed): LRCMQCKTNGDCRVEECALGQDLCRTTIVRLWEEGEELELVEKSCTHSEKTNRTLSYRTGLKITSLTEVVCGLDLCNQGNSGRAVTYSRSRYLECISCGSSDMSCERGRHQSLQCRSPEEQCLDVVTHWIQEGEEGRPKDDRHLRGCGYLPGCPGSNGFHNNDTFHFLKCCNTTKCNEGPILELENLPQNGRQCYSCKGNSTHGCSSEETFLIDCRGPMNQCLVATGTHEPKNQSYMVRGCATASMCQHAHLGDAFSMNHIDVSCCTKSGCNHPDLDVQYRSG
# assayRemarks: Biacore Binding Assay (surface plasmon resonance), ligand binding to immobilised suPAR
# particulars: relative to the Growth Factor Domain of uPA (GFD = 1.0)
# Method: Association rate constants (kass), dissociation rate constants (kdiss) and equilibrium binding constants (kd) for various synthetic peptides and receptor binding derivatives of human uPA were determined by surface plasmon resonance (R. Karlsson et al. (1991) J. Immunol. Meths. 145:229–240) using a BIAcore2000™ instrument (Pharmacia Biosensor, Uppsala, Sweden). […]
No end group written: not given here.
Could you please mark 1 (yes) for values of Relative kdiss below 20 and 0 (no) for values at or above it?

| substance | assignedClass |
| --- | --- |
| dChaFSrYLWS (DXFSRYLWS; D-residues; non-natural residues; cyclised or stapled) [AE107] | 0 (no) |
| dChaFsrYLWs (DXFSRYLWS; not fully specified; D-residues; non-natural residues; cyclised or stapled) | 1 (yes) |
| AEPMPHSLNFSQYLWYT [AE78, reference compound] | 0 (no) |
| DChaFSrYLWS (DXFSRYLWS; D-residues; non-natural residues; cyclised or stapled) [AE106] | 1 (yes) |
| SLNFSQYLWS (AE68) [reference compound] | 0 (no) |

Next, consider the following substance.
QUERY: Quick check: does DChaFsRYLWS (DXFSRYLWS; D-residues; non-natural residues; cyclised or stapled) [AE110] have Relative kdiss under 20?
RESULT: 1 (yes)
